biological target: NADPH oxidase 4 (Homo sapiens); assay: compounds shifting NOX4 Amplex Red fluorescence – cell-based, HEK293-NOX4, tetracycline-induced, NOX inhibitor project, primary screen (AID 1160); conditions: HEK293-NOX4, Amplex Red H2O2 fluorescence, 45 min; higher = more signal, called active from +8 up or from −8 down
measuredProperty: z-score
# answer = number (no unit)

Q: Quick one: z-score of CCCC(=O)N(CCc1c[nH]c2ccccc12)[C@@H]1CC(C(=O)NCCO)=C[C@H](Oc2c(I)cc(CO)cc2OC)[C@H]1O ?
Result: 1.07

Q: Quick one: z-score of [N-]=[N+]=NCc1ccccc1[C@@H]1OC(c2ccc(OCCCO)cc2)=N[C@]1(CCS(=O)(=O)c1ccccc1)C(=O)N1CCCCC1 ?
Result: 1.19

Q: Quick one: z-score of O=C1C2C=CC(C(O)C=Cc3ccc([N+](=O)[O-])cc3)N(n3cnnc3)C2C(=O)N1Cc1ccccc1 (configuration not stated) ?
Result: -0.711

Q: Quick one: z-score of CCOC(=O)C[C@H]1[C@H](OC(=O)c2cc3ccccc3oc2=O)[C@@H](NC(=O)CC(C)C)c2cc(OCCCO)ccc2N1C(=O)c1ccccc1 ?
Result: 0.0665

Q: Quick one: z-score of CCN(CC)c1ccc(N2CC=CC34O[C@@H]5/C=C\CCC(C)OC(=O)C5[C@H]3C(=O)N(CCCCCO)[C@@H]4C2=O)cc1 (some centres not stated) ?
Result: -0.419

Q: Quick one: z-score of CC(C)N1CC=CC23O[C@@H]4C=CCOC(=O)[C@@H]4[C@H]2C(=O)N(CCCCCO)[C@@H]3C1=O (some centres not stated) ?
Result: 0.225

Q: Quick one: z-score of CCCCCCc1nc(-c2ccc(-c3ccc(Cl)c(Cl)c3)o2)cc2c1[Si](C(C)C)(C(C)C)O[C@H]2c1ccccc1 ?
Result: -1.44

====

molecular target: Alpha-bungarotoxin (Bungarus multicinctus); assay: compounds binding labelled alpha-BTX control protein – biochemical, small-molecule microarray, Alexa647 label, 635/667 nm fluorescence, artefact control for SMM control protein annotation, profiling panel (AID 1117); settings: alpha-BTX-A647 binding fluorescence, higher = more signal
Can you tell me composite z-score for the items I'm about to list?
# answer = number (no unit)

Q: Quick one: composite z-score of CN(C)CCCC[C@@H]1NC(=O)[C@H]2C[C@@H](C(=O)NCCCCCN)[C@@H](c3cccc(OCCO)c3)N2C1=O ?
Result: 1.44

Q: Quick one: composite z-score of CO[C@H]1O[C@H](CO)[C@@H](OC(=O)Nc2ccccc2)[C@@H]2OC(=O)[C@@H](Cc3ccc4ccccc4c3)C/C=C/C[C@H](Cc3ccc4ccccc4c3)C(=O)O[C@@H]12 ?
Result: 0.322

Q: Quick one: composite z-score of CCCNC(=O)[C@@H]1c2ccccc2C(=O)N(Cc2ccccc2OC)[C@H]1c1ccc(CO)cc1 ?
Result: 1.25

Q: Quick one: composite z-score of COC(=O)[C@@]1(Cc2ccc(OC)cc2)[C@H]2c3cc(C(=O)N4CCCC4)n(CCSCCO)c3C[C@H]2CN1C(=O)c1ccccc1 ?
Result: 1.22

Q: Quick one: composite z-score of NC(=O)N1C(=O)C2C(C1=O)C1C=C(CCCO)C2C(C2CC2)N1Cc1cc2c(cc1Br)OCO2 (configuration not stated) ?
Result: 0.515

Q: Quick one: composite z-score of COc1ccc(C(O)C2C=CC3C(=O)N(C)C(=O)C3N2N(c2ccccc2)c2ccccc2)c2ccccc12 (configuration not stated) ?
Result: 0.429

Q: Quick one: composite z-score of COC(=O)[C@@]1(Cc2ccc(F)cc2)[C@H]2c3cc(C(=O)N(C)C)n(Cc4ccc(C)o4)c3C[C@H]2CN1C(=O)c1ccccc1 ?
Result: -1.73
